Tested on: cathepsin L1 (Fasciola hepatica)
assayRemarks: CTSL1 protease inhibition, fluke enzyme – biochemical, QFRET, fluorogenic peptide substrate, counter-screen for PFM18AAP inhibitor project, primary screen (AID 1906);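 also: 0% = plate median of test compound wells and 100% = 1 µM Z-Phe-Ala-diazomethylketone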
testConditions: recombinant F. hepatica cathepsin L1, Z-Leu-Arg-MCA fluorescence; at 5.96 µM; hits give high values
Hit rate of the full screen: of about 300,000 compounds, about 1,500 (0.5%) were called active. Only a selection was taken, and actives are over-represented in it overall.
Below, each entry is listed alongside its reported inhibition.

compound | reading
COc1ccc(CNC(=O)C2(CC3CC(c4ccccc4)=NO3)CCN(C(=O)c3cccc(O)c3)CC2)cc1 (stereo not drawn) | -1.66% (inactive)
CCN(CC)CCNS(=O)(=O)c1ccc(/C=C/C(=O)O)cc1 | 8.82% (inactive)

# next compound below
## Input Give the measured inhibition of O=C(c1ccc(-c2ccccc2)cc1)C1CCCN(C(=O)c2cncs2)C1 (stereo not drawn) .
## Output 0.67% (inactive)
